- target under test: human JAK2 (a.a. 828-1132) (Homo sapiens, UniProt O60674)
- Construct: JAK2 (a.a. 828-1132); His tag (N); made in house; host or cells: insect cells (baculovirus)
- Sequence (O60674 828-1132): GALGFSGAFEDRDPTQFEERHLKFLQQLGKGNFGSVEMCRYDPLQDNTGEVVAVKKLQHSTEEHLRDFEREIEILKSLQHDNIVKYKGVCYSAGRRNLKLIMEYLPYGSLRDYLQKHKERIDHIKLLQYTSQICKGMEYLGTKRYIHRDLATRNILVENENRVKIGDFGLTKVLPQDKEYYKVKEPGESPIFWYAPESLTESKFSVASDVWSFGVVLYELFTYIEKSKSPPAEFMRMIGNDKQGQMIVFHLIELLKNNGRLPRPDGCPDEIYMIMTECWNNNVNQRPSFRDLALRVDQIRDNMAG
- protocol description: In vitro JAK kinase assay (HTRF, phosphorylation of a biotinylated peptide), JAK2
- Assay type: biochemical
- study conditions: Table D1
pIC50: −log10 of the molar value. Structures can show the parent of a compound that is named as a salt.
Listing of recorded pIC50 by entry.
test readout: pIC50

1. CS(=O)(=O)N1CC[C@H](CC(=O)Nc2ccc3cc2CCc2cncc(c2)Nc2ncc(Cl)c(n2)N3)C1 [Example D112, bis(trifluoroacetate)]
6.85
2. CS(=O)(=O)N1CC[C@@H](CC(=O)Nc2ccc3cc2CCc2cncc(c2)Nc2ncc(Cl)c(n2)N3)C1 [Example D127, bis(trifluoroacetate)]
6.70
3. O=S1(=O)Cc2cccc(c2)Nc2nc(ncc2Cl)Nc2cccc1c2 [Example D4, trifluoroacetate]
7.80
4. O=C(C[C@@H]1CCN(C(=O)Nc2cccnc2)C1)Nc1ccc2cc1CCc1cncc(c1)Nc1ncc(Cl)c(n1)N2 [Example D117, tris(trifluoroacetate)]
6.41
5. O=C(C[C@H]1CCCNC1)Nc1ccc2cc1CCc1cccc(c1)Nc1ncc(Cl)c(n1)N2
8.08

The values you see were collected from patent US8871753B2.
